Tested on: UMC-11
Experiment: relative viability (nuclei count vs DMSO), 5 days (fraction); higher = more cells survive
Settings: first compound 2.53 µM
Would you mind telling me the reported relative viability of each entry?
Response field accepts a number only; no unit should be typed.

Inquiry: Would you mind telling me what relative viability value was observed for Nc1cccc2c1CN(C1CCC(=O)NC1=O)C2=O (centres undefined) [Lenalidomide] + N=C(N)NC(=N)NCCc1ccccc1 [Phenformin] (partner 250 µM) ?
Reply text: 0.389

Inquiry: Would you mind telling me what relative viability value was observed for Nc1cccc2c1CN(C1CCC(=O)NC1=O)C2=O (centres undefined) [Lenalidomide] + Nc1nc2[nH]cc(CCc3ccc(C(=O)N[C@@H](CCC(=O)O)C(=O)O)cc3)c2c(=O)[nH]1 [Pemetrexed] (partner 0.2 µM) ?
Reply text: 0.84

Inquiry: Would you mind telling me what relative viability value was observed for Nc1cccc2c1CN(C1CCC(=O)NC1=O)C2=O (centres undefined) [Lenalidomide] + CC1(C)CCC(c2ccc(Cl)cc2)=C(CN2CCN(c3ccc(C(=O)NS(=O)(=O)c4ccc(N[C@H](CCN5CCOCC5)CSc5ccccc5)c(S(=O)(=O)C(F)(F)F)c4)cc3)CC2)C1 [Navitoclax] (partner 0.5 µM) ?
Reply text: 0.346

Inquiry: Would you mind telling me what relative viability value was observed for Nc1cccc2c1CN(C1CCC(=O)NC1=O)C2=O (centres undefined) [Lenalidomide] + COc1cc2c(Oc3ccc(NC(=O)C4(C(=O)Nc5ccc(F)cc5)CC4)cc3F)ccnc2cc1OCCCN1CCOCC1 [Foretinib] (partner 0.25 µM) ?
Reply text: 1.06
